The measurements presented in this section are drawn from paper PMC9502272.

Molecular target: Oatp1b2 (Mus musculus, UniProt Q9JJL3)
Sequence (Q9JJL3 whole entry): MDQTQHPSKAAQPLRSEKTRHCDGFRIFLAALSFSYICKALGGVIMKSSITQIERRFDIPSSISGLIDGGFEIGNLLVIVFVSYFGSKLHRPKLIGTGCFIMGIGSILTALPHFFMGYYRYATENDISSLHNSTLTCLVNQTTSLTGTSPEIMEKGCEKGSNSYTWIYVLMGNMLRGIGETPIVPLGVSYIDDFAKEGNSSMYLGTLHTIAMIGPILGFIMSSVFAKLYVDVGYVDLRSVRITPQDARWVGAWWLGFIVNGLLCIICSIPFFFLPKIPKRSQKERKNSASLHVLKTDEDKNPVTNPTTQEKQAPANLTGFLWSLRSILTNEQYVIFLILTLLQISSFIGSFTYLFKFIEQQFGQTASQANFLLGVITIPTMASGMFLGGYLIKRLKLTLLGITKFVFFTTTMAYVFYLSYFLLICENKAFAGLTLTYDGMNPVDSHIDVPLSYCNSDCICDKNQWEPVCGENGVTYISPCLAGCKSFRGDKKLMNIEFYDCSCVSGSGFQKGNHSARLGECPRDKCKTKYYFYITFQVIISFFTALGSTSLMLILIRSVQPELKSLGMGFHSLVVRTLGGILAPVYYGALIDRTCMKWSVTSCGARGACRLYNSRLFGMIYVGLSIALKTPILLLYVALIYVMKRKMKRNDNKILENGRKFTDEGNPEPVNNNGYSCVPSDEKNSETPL
Assay: Untargeted metabolomics of plasma from untreated wild-type and Oatp1b2(−/−) mice
Details: plasma of untreated wild-type mice; raw area counts rescaled to median = 1
Would you kindly list Mean value WT for each of these compounds?

State its Mean value WT on Oatp1b2 (Mus musculus, UniProt Q9JJL3): CCCCCC=CCC=CCCCCCCCC(=O)OCC(O)COP(=O)(O)OCC(O)CO (centres unmarked)
.529

# repeat for COC1=C(O)[C@@H]([C@@H](O)CO)OC1=O
.927

Follow-up entry: C[N+](C)(C)CCOP(=O)([O-])OC[C@H](O)CO
.836

And for CCCCC/C=C\C/C=C\C/C=C\C/C=C\CCCC(=O)OC[C@@H](O)COP(=O)(O)OC1C(O)C(O)C(O)C(O)C1O (some centres unmarked) ?
.754

Let us now turn to N[C@@H](CCC(=O)NCC(=O)O)C(=O)O
.950

Try this compound too: Nc1ncnc2c1ncn2C1OC(COP(=O)(O)O)C(O)C1O (centres unmarked) [adenosine 5'-monophosphate (AMP)]
.927

Another: O=C(O)CCCCCCCCCCCCCCC(=O)O [hexadecanedioate (C16-DC)]
.749

Same for CCC(C)C(O)C(=O)O (centres unmarked) [2-hydroxy-3-methylvalerate]
.738

* * *

Target: Oatp1b2 (Mus musculus)
Assay: Untargeted metabolomics of plasma from untreated wild-type and Oatp1b2(−/−) mice
Settings: plasma of untreated Oatp1b2-deficient mice; raw area counts rescaled to median = 1
Entry flag: 1 if Mean value KO reaches 2; -1 if it does not.

I'd appreciate it if you could say whether C[C@H](CCC(=O)O)[C@H]1CC[C@H]2[C@@H]3[C@H](O)[C@@H](O)[C@@H]4C[C@H](O)CC[C@]4(C)[C@H]3CC[C@]12C [alpha-muricholate] has Mean value KO at least equal to 2.
1

Follow-up entry: CC(C)CCC(=O)NCC(=O)O
-1

// next record COC1=C(O)[C@@H]([C@@H](O)CO)OC1=O
-1

CC(C)C(=O)O[C@H](CC(=O)[O-])C[N+](C)(C)C ?
-1

And for CCCCCCCCCCCCCCCC(=O)OC[C@H](COP(=O)([O-])OCC[N+](C)(C)C)OC(=O)CCCCCCCCCCCCCCC ?
-1

Quick one: CCC(C)C(O)C(=O)O (stereo not shown) [2-hydroxy-3-methylvalerate]
1

Cool, now CCCC(=O)NCC(=O)O
-1

Would you kindly repeat that for CCO[C@@H]1O[C@H](CO)[C@@H](O)[C@H](O)[C@H]1O [ethyl beta-glucopyranoside] ?
-1

Field entry: CCCCCCCCCCCCCCCC(=O)OC[C@H](COP(=O)(O)OCCN)OC(=O)CCCCCCCCCCCCCCC
-1

Would you mind doing CCCCCC(=O)NCC(=O)O as well?
-1

Same lookup for O=C(O)CCCCCCCCCCC(=O)O [dodecanedioate (C12-DC)] , please.
1

What would you report for CCCCC/C=C\C/C=C\C/C=C\C/C=C\CCCC(=O)O[C@H](CC(=O)[O-])C[N+](C)(C)C ?
-1

Moving on to C[C@H](CCC(=O)O)[C@H]1CC[C@H]2[C@@H]3C(=O)C[C@@H]4C[C@H](O)CC[C@]4(C)[C@H]3C[C@H](O)[C@]12C [7-ketodeoxycholate]
1

* * *

Biological target: Oatp1b2 (Mus musculus)
Test: Untargeted metabolomics of plasma from untreated wild-type and Oatp1b2(−/−) mice
Conditions: plasma of untreated Oatp1b2-deficient mice; raw area counts rescaled to median = 1
Structures can show the parent of a compound that is named as a salt.
metric: Mean value KO
Lab note: write the figure by itself, no unit.

Please look up its Mean value KO: CC(C)CCC[C@@H](C)[C@H]1CC[C@H]2[C@@H]3CCC4=CC(=O)CC[C@]4(C)[C@H]3CC[C@]12C [4-cholesten-3-one]
1.12

Moving on to the next compound: C[C@H](CCC(=O)O)[C@H]1CC[C@H]2[C@@H]3[C@H](O)C[C@@H]4C[C@H](O)CC[C@]4(C)[C@H]3CC[C@]12C [chenodeoxycholate]
2.09

Okay, and CCCCCCCCCCCCCCCCCCCC(=O)OC(CC(=O)[O-])C[N+](C)(C)C (stereo not shown) [arachidoylcarnitine (C20)] ?
1.21

What would you report for C[C@H](CCC(=O)O)[C@H]1CC[C@H]2[C@@H]3[C@@H](O)C[C@@H]4C[C@H](O)CC[C@]4(C)[C@H]3C[C@H](O)[C@]12C [ursocholate] ?
5.10

Next compound up: O=C(O)CC[C@H](NC(=O)Cc1ccccc1)C(=O)O [phenylacetylglutamate]
1.24

Try this compound too: O=S(=O)(O)Oc1c[nH]c2ccccc12 [3-indoxyl sulfate]
1.19

Try this compound next: O=C(O)CCCCCCCCC(=O)O [sebacate (C10-DC)]
1.20

Another compound to check: CCCCC/C=C\C/C=C\CCCCCCCC(=O)OC[C@@H](O)COP(=O)(O)OCCN [1-linoleoyl-GPE (18:2)]
1.42

Queued: CCCCCCCC/C=C\CCCCCCCC(=O)O[C@H](COC(=O)CCCCCCCCCCCCCCCCC)COP(=O)([O-])OCC[N+](C)(C)C [1-stearoyl-2-oleoyl-GPC (18:0/18:1)]
1.07

And for C[C@H](CCC(=O)NCCS(=O)(=O)O)[C@H]1CC[C@H]2[C@@H]3CC[C@@H]4C[C@H](OS(=O)(=O)O)CC[C@]4(C)[C@H]3C[C@H](O)[C@]12C [taurodeoxycholic acid 3-sulfate] ?
1.10

And CC(C)C(O)C(=O)O (stereo not drawn) [alpha-hydroxyisovalerate] ?
1.43

Consider next the compound O=C(O)CCCCCCCCCC(=O)O [undecanedioate (C11-DC)] in the same way.
1.96

Same thing, different compound: Cc1ccc(OS(=O)(=O)O)c(N)c1 [2-amino-p-cresol sulfate]
1.86

How about this compound: CCCCCCC=CCCCCCCCC(=O)OC(CC(=O)[O-])C[N+](C)(C)C (stereo not shown) [palmitoleoylcarnitine (C16:1)]
1.54

Again, but for O=C1CC(C(=O)O)C(C(=O)O)O1 (stereo not shown) [isocitric lactone]
1.08

Check CC(=O)N[C@@H](Cc1cncn1C)C(=O)O [N-acetyl-3-methylhistidine] too.
1.09

* * *

Biological target: Oatp1b2 (Mus musculus, UniProt Q9JJL3)
Test: Untargeted metabolomics of plasma from untreated wild-type and Oatp1b2(−/−) mice
Details: plasma of untreated wild-type mice; raw area counts rescaled to median = 1
Structures can show the parent of a compound that is named as a salt.
metric: Mean value WT

Which measured Mean value WT belongs to CC(CCC[C@@H](C)[C@H]1CC[C@H]2[C@@H]3[C@H](O)CC4=CC(=O)CC[C@]4(C)[C@H]3CC[C@]12C)C(=O)O (stereo partly shown) , tested on Oatp1b2 (Mus musculus, UniProt Q9JJL3)?
.944

Record: NCCS(=O)O
.887

And C[C@H](CCC(=O)O)[C@H]1CC[C@H]2[C@@H]3[C@@H](O)[C@@H](O)[C@@H]4C[C@H](O)CC[C@]4(C)[C@H]3CC[C@]12C [beta-muricholate] ?
.187

Same thing, different compound: CCCCCCCC/C=C\CCCCCC/C=C\OC[C@@H](O)COP(=O)(O)OCCN
.672

// query: CC(=O)Nc1ccn([C@@H]2O[C@H](CO)[C@@H](O)[C@H]2O)c(=O)n1
.819

# repeat for CCCCCC/C=C\CCCCCCCC(=O)O[C@H](CO)COP(=O)([O-])OCC[N+](C)(C)C
.696

Subsequent entry: C[N+](C)(C)CCCCC(=O)[O-] [N,N,N-trimethyl-5-aminovalerate]
.597

And for Cc1ccc(OS(=O)(=O)O)c(N)c1 [2-amino-p-cresol sulfate] ?
.435

Same question for CCCCCCCC/C=C\CCCCCCCC(=O)OC[C@@H](O)COP(=O)([O-])OCC[N+](C)(C)C please.
.732

Proceed to CCCCCCCCCCCCCCCC(=O)OC[C@H](COP(=O)(O)OCCN)OC(=O)CCCCCCCCCCCCCCC
.664

Now give it for CCCCCCCCCCCCCCCCCCCC(=O)OC(CC(=O)[O-])C[N+](C)(C)C (stereo not shown) too.
.889

Next compound: Cc1ccc(O[C@@H]2O[C@H](C(=O)O)[C@@H](O)[C@H](O)[C@H]2O)cc1 [p-cresol glucuronide]
.503

Please give the result for CCCCCCCCCCCCCC/C=C\OC[C@H](COP(=O)([O-])OCC[N+](C)(C)C)OC(=O)CCCCCCCCCCCCCCC too.
.919

For CCCCC/C=C\C/C=C\CCCCCCCCCC(=O)OC(CC(=O)[O-])C[N+](C)(C)C (stereo not shown) then?
.785

Here is the next compound: CC(C)CCC(=O)NCC(=O)O
.815

Could you do the same for CCCCCCCCCCCCCCCC(N)=O [palmitamide (16:0)] , please?
.840
